Quick reference for IC50 among some compounds
Target: recombinant human c-MET kinase enzyme domain (Homo sapiens, UniProt P08581)
Construct: Recombinant c-Met kinase domain (amino acids 960-1390); His (N); SF21 is named only for the alternative format)
Sequence (P08581 960-1390): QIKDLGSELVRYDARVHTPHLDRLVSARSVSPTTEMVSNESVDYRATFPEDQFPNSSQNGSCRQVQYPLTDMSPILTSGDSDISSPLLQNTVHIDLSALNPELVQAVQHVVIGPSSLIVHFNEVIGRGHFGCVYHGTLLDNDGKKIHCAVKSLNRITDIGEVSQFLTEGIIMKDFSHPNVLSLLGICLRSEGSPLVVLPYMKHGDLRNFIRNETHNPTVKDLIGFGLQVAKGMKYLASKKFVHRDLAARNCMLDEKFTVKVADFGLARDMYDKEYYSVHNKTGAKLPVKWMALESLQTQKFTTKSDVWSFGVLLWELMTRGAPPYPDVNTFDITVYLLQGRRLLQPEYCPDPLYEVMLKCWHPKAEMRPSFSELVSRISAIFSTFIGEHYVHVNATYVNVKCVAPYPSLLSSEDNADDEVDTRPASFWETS
Assay: c-MET receptor tyrosine kinase Homogeneous Time Resolved Fluorescence assay (HTRF)
Conditions: Biological Example 1 and/or Biological Example 2

CC1=C(C#N)C(c2cccc(C(=O)NCCC3CCNCC3)c2)C(C#N)=C(C)N1 [compound 26] | 0.1 to 0.5 µM
CC1=C(C#N)C(c2ccc3[nH]nc(NCCN4CCOCC4)c3c2)C(C#N)=C(C)N1 [compound 307] | < 0.1 µM
CNC(=O)c1cccc(C2C(C#N)=C(C)NC(c3ccc(O)cc3)=C2C#N)c1 (centres unmarked) [compound 239] | 0.5 to 2.5 µM
CC1=C(C#N)C(c2cccc(NC(=O)c3cccnc3)c2)C(C#N)=C(C)N1 [compound 38] | 0.5 to 2.5 µM
CNC(=O)c1cccc(C2C(C#N)=C(C)NC(C)=C2C#N)c1 [compound 22] | 0.1 to 0.5 µM
CC1=C(C#N)C(c2ccc3[nH]ncc3c2)C(C#N)=C(c2ccc(N3CCOCC3)nc2)N1 (centres unmarked) [compound 271] | < 0.1 µM

Now for another entry.
Briefly, IC50 measured for CNC(=O)c1cccc(C2C(C#N)=C(C)NC(c3ccccc3)=C2C#N)c1 (centres unmarked) [compound 240] : 0.5 to 2.5 µM

* * *

Quick reference for pIC50 among some compounds
Target: recombinant human c-MET kinase enzyme domain (Homo sapiens)
Construct: Recombinant c-Met kinase domain (amino acids 960-1390); His (N); SF21 is named only for the alternative format)
Experiment: c-MET receptor tyrosine kinase Homogeneous Time Resolved Fluorescence assay (HTRF)
Settings: Biological Example 1 and/or Biological Example 2
pIC50: −log10 of the molar value.

CC1=C(C#N)C(c2ccc3[nH]nc(C(=O)O)c3c2)C(C#N)=C(C)N1 | > 7.00
CC1=C(C#N)C(c2cccc(C(=O)Nc3nccs3)c2)C(C#N)=C(C)N1 | 6.30 to 7.00
CC1=C(C#N)C(c2cccc(C(=O)Nc3cccc(N)n3)c2)C(C#N)=C(C)N1 | 6.30 to 7.00

Briefly, pIC50 measured for CC1=C(C#N)C(c2ccc3[nH]ncc3c2)C(C#N)=C(c2ccc(NCCN(C)C)nc2)N1 (centres unmarked) : > 7.00

Briefly, pIC50 measured for CC1=C(C#N)C(c2ccc3[nH]nc(-c4cn[nH]c4)c3c2)C(C#N)=C(C)N1 : > 7.00

Briefly, pIC50 measured for CC1=C(C#N)C(c2ccc3[nH]nc(NCc4cnc[nH]4)c3c2)C(C#N)=C(C)N1 : > 7.00

* * *

Molecular target: recombinant human c-MET kinase enzyme domain (Homo sapiens, UniProt P08581)
Construct: Recombinant c-Met kinase domain (amino acids 960-1390); His (N); SF21 is named only for the alternative format)
Test: c-MET receptor tyrosine kinase Homogeneous Time Resolved Fluorescence assay (HTRF)
Settings: Biological Example 1 and/or Biological Example 2
Text: Recombinant c-Met kinase domain (amino acids 960-1390) was produced in a baculovirus expression vector as an N-terminal His-tagged fusion protein and purified on a NiNTA column. The resulting purified enzyme was then used in the following c-Met Homogeneous Time Resolved Fluorescence assay (HTRF) to find compounds of the invention and to perform initial activity determinations. […]
Counter-ions that a name gives are not always drawn.
Quick reference for IC50 among some compounds

CC1=C(C#N)C(c2ccc3[nH]ncc3c2)C(C#N)=C(C)N1C [compound 289] | < 0.1 µM
CC1=C(C#N)C(c2ccc3[nH]nc(-c4cnco4)c3c2)C(C#N)=C(C)N1 [compound 177] | < 0.1 µM
CC1=C(C#N)C(c2ccc3[nH]nc(CN4CCN(CCO)CC4)c3c2)C(C#N)=C(C)N1 [compound 166] | < 0.1 µM
CNC(=O)c1cccc(C2C(C#N)=C(C)NC(c3ccc(N)cc3)=C2C#N)c1 (centres unmarked) [compound 238] | 0.5 to 2.5 µM
CC1=C(C#N)C(c2ccc3[nH]nc(NCc4ccc([N+](=O)[O-])cc4)c3c2)C(C#N)=C(C)N1 [compound 127] | 0.5 to 2.5 µM
CC1=C(C#N)C(c2ccc3[nH]nc(-c4ccncc4)c3c2)C(C#N)=C(C)N1 [94.2, acetic acid salt] | < 0.1 µM
CC1=C(C#N)C(c2ccc3[nH]nc(-c4ccc(N5CCN(C(=O)OC(C)(C)C)CC5)cc4)c3c2)C(C#N)=C(C)N1 [compound 155] | < 0.1 µM

Now for another entry.
Briefly, IC50 measured for CC1=C(C#N)C(c2ccc3[nH]nc(C(=O)NCCCN(C)C)c3c2)C(C#N)=C(C)N1 [106.1, TFA salt] : < 0.1 µM
